run-description: Genotoxicity in human HepG2 assessed as survival at 100 ug/ml measured after 24 hrs by micronucleus test (reference value: 100%)
Format: toxicity, cell-based
measurement-context: HepG2 cells, at 100 µg/mL, read-out: Survival
observation-type: viability at 24 h, 100 ug/ml (%)
// note: answer is a bare numeric in %

viability at 24 h, 100 ug/ml in this record for c1ccc2c(c1)cc1ccc3cccc4ccc2c1c34 [BENZO[DEF]CHRYSENE] : 99

====

run-description: Genotoxicity in human HepG2 assessed as survival at 1750 uM measured after 24 hrs by micronucleus test (reference value: 100%)
Assay type: toxicity, cell-based
measurement-context: HepG2 cells, read-out: Survival
observation-type: viability at 24 h, 1750 µM (%)
Unit % implied. Number only.

viability at 24 h, 1750 µM recorded for this molecule, CCCCCc1ccc(-c2cn(-c3c([N+](=O)[O-])ncn3C)nn2)cc1 , is 80

====

Listing of recorded IC50 by entry.
Test system: Trypanosoma cruzi
run-description: Antitrypanosomal activity against Trypanosoma cruzi Y axenic amastigotes infected in African green monkey Vero cells after 24 hrs by MTT assay
Assay type: functional, organism-based

Some entries whose results are on file:
compound: O=C(Cn1ccnc1[N+](=O)[O-])NCc1ccccc1 [BENZNIDAZOLE]
measured-on: Trypanosoma cruzi
observation-type: IC50
recorded-value: 8.7 µM
--
compound: CCOC(=O)c1cn(-c2c([N+](=O)[O-])ncn2C)nn1
measured-on: Trypanosoma cruzi
observation-type: IC50
recorded-value: 393 µM
--
compound: Cn1cnc([N+](=O)[O-])c1-n1cc(C2CC2)nn1
measured-on: Trypanosoma cruzi
observation-type: IC50
recorded-value: 12 µM

# next compound below
Recorded IC50 (compound CCCCCc1ccc(-c2cn(-c3c([N+](=O)[O-])ncn3C)nn2)cc1 ): 142 µM

====

run-description: Mutagenicity in Salmonella typhimurium TA97 assessed as revertant/ug measured after 20 mins in absence of S9 fraction by microsome assay
Format: toxicity
measurement-context: salmonella enterica subsp. enterica serovar typhimurium, microsomes
observation-type: Activity
# include the unit after the value

Sample records with Activity:
structure-smiles-string: CCCCCc1ccc(-c2cn(-c3c([N+](=O)[O-])ncn3C)nn2)cc1
recorded-value: 1.34 revertants/µg

structure-smiles-string: CCOC(=O)c1cn(-c2c([N+](=O)[O-])ncn2C)nn1
recorded-value: 2.19 revertants/µg

Lab note: measured Activity of Cn1cnc([N+](=O)[O-])c1-n1cc(C2CC2)nn1 was 6.31 revertants/µg

Short answer for Cn1cnc([N+](=O)[O-])c1-n1cccn1 : Activity was 11.5 revertants/µg

====

run-description: Selectivity index, ratio of GI50 for mouse RAW264.7 cells assessed as reduction in cell viability measured after 24 hrs by WST1 assay to IC50 for antitrypanosomal activity against Trypanosoma cruzi Y axenic amastigotes infected in African green monkey Vero cells
Type: toxicity
measurement-context: read-out: Selectivity Index
observation-type: selectivity ratio at 24 h

Recorded results for 3 molecules are shown here.
structure-smiles-string: CCCCCc1ccc(-c2cn(-c3c([N+](=O)[O-])ncn3C)nn2)cc1
selectivity ratio at 24 h: > 0.25
//
structure-smiles-string: O=C(Cn1ccnc1[N+](=O)[O-])NCc1ccccc1
selectivity ratio at 24 h: > 57
//
structure-smiles-string: Cn1cnc([N+](=O)[O-])c1-n1cc(C2CC2)nn1
selectivity ratio at 24 h: > 35.5

Now for another entry.
Summary for this molecule, CCOC(=O)c1cn(-c2c([N+](=O)[O-])ncn2C)nn1 : selectivity ratio at 24 h is > 0.95
